Where do the numbers come from? From patent US20220025021A1.

system.name: HIV-1 Env of pseudovirus 0260.v5.c36 (HIV-1)
assay.overview: cell-based or functional assay
// reported neutralization IC80 per item
Provide only the numeric value, understood in µg/mL.

Please review the entries below; each comes with its answer.
INSERT INTO measurements (binder, meas_value) VALUES
  ('MS-77 (antibody, V domains shown) VH: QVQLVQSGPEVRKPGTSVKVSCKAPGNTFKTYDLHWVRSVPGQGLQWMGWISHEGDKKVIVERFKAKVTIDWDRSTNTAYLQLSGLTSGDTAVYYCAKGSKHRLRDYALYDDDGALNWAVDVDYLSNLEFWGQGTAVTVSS VL: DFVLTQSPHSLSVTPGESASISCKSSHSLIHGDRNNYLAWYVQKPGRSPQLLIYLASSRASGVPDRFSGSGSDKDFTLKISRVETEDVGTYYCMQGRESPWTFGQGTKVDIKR', 0.101),
  ('MS-87 (antibody, V domains shown) VH: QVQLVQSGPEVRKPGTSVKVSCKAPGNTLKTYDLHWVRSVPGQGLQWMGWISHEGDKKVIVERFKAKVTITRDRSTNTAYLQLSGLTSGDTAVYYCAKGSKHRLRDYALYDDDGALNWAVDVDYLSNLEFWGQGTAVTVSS VL: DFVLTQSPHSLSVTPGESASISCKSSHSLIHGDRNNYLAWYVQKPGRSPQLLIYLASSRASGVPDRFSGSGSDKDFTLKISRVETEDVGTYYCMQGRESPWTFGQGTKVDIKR', 1.01),
  ('MS-89 (antibody, V domains shown) VH: QVQLVQSGPEVRKPGTSVKVSCKAPGYTLKTYDLHWVRSVPGQGLQWMGWISHEGDKKVIVERFKAKVTITWDRSTNTAYLQLSGLTSGDTAVYYCAKGSKHRLRDYALYDDDGALNWAVDVDYLSNLEFWGQGTAVTVSS VL: DFVLTQSPLSLSVTPGESASISCKSSHSLIHGDRNNYLAWYVQKPGRSPQLLIYLASSRASGVPDRFSGSGSDKDFTLKISRVETEDVGTYYCMQGRESPWTFGQGTKVDIKR', 0.197),
  ('MS-76 (antibody, V domains shown) VH: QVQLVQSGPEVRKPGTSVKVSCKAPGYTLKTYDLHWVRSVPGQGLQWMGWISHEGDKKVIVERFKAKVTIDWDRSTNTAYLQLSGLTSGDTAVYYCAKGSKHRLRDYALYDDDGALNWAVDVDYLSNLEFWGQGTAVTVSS VL: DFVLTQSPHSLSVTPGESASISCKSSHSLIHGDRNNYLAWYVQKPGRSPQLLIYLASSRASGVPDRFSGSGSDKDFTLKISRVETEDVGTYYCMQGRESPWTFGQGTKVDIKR', 0.06);

// next entry
Task item: What does the data say about its neutralization IC80? Entry: MS-75 (antibody, V domains shown) VH: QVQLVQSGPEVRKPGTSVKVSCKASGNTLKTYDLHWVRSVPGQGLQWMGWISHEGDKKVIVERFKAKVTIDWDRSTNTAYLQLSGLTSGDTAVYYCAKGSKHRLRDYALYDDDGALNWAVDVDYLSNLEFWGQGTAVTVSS VL: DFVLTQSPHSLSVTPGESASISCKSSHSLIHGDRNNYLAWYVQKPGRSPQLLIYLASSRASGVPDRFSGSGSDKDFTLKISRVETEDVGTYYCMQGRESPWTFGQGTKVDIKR
Reply: 0.137
